Source: patent US20240317777A1

target.entity: CDK6-CYCLIN D3 (Homo sapiens, UniProt Q00534)
Sequence (Q00534 whole entry): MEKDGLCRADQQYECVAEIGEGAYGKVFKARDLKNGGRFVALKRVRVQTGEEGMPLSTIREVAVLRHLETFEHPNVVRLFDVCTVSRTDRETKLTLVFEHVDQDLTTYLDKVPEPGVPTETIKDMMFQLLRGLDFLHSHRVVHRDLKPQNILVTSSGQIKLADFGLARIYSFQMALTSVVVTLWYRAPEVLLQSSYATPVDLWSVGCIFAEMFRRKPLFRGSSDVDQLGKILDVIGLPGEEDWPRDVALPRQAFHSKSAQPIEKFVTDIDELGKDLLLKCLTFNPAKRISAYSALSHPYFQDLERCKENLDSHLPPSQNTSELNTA
Sequence (P30281 whole entry partner): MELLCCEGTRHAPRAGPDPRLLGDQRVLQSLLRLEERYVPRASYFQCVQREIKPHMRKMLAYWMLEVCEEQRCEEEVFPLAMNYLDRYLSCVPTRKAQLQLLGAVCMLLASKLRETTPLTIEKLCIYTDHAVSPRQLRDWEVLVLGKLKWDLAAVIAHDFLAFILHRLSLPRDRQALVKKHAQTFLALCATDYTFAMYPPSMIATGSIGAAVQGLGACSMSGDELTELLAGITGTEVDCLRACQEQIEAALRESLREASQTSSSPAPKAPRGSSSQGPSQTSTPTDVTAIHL
procedure.summary: CDK protein kinase inhibition by ADP-Glo assay, CDK6-CYCLIN D3
Assay type: biochemical
experimental.setup: ADP-Glo, 1000 μM ATP; Table 21; read-out: CDK6-CYCLIND3, IC50
pIC50: −log10 of the molar value.
assay.readout: pIC50

test_smiles=O=C1NCCCO[C@@H](C(F)(F)F)c2cc(ccn2)Nc2cc(n[nH]2)[C@H]2CC[C@H](C2)O1 test_value="7.30 to 8.00"
test_smiles=C[C@H]1CC[C@H](C)Oc2cncc(c2)Nc2cc(n[nH]2)[C@H]2CC[C@H](C2)OC(=O)N1 test_value="7.00 to 7.30"
test_smiles=C[C@@H]1Oc2cc(ccn2)Nc2cc(n[nH]2)[C@H]2CC[C@H](C2)OC(=O)N[C@H]2C[C@H]1C2 test_value="6.30 to 7.00"
test_smiles=C[C@H]1CCCNC(=O)O[C@@H]2CC[C@@H](C2)c2cc([nH]n2)Nc2cccc(c2)O1 test_value="6.30 to 7.00"
test_smiles=C[C@@H]1Oc2cncc(c2)Nc2cc(n[nH]2)[C@H]2CC[C@H](C2)OC(=O)N[C@H]2C[C@H]1C2 test_value="7.00 to 7.30"
test_smiles=C[C@@H]1CC[C@H](C)Oc2cncc(c2)Nc2cc(n[nH]2)[C@H]2CC[C@H](C2)OC(=O)N1 test_value="7.00 to 7.30"
test_smiles=C[C@H]1CC[C@H](C)Oc2cc(ccn2)Nc2cc(n[nH]2)[C@H]2CC[C@H](C2)OC(=O)N1 test_value="6.30 to 7.00"
test_smiles=C[C@H]1Oc2cc(ccn2)Nc2cc(n[nH]2)[C@H]2CC[C@H](C2)OC(=O)N[C@H]2C[C@H]1C2 test_value="6.30 to 7.00"
test_smiles=C[C@H]1Oc2cncc(c2)Nc2cc(n[nH]2)[C@H]2CC[C@H](C2)OC(=O)N[C@H]2C[C@H]1C2 test_value="7.00 to 7.30"

* * *

target.entity: CDK4-CYCLIN D1 (Homo sapiens)
Sequence (P11802 whole entry): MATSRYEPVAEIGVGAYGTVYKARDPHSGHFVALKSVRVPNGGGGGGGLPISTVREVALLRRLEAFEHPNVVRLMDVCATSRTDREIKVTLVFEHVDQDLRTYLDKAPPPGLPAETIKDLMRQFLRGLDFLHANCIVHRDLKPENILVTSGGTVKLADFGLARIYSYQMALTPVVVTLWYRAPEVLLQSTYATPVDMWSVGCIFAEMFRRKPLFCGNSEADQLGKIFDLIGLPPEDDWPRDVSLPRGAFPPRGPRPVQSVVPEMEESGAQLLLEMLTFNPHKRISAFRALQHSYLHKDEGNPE
Sequence (P24385 whole entry partner): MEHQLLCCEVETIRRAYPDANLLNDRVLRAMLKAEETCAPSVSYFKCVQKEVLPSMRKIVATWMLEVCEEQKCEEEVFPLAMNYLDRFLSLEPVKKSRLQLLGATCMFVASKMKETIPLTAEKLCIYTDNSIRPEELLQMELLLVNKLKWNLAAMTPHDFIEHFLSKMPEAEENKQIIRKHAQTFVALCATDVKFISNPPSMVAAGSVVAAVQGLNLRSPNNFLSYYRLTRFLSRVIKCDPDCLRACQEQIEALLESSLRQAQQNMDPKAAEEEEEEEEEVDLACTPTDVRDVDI
procedure.summary: CDK protein kinase inhibition by ADP-Glo assay, CDK4-CYCLIN D1
Type: biochemical
experimental.setup: Table 35; recombinant CDK kinase; read-out: CDK4-CYCLIND1, IC50
pIC50: −log10 of the molar value.
assay.readout: pIC50

test_smiles=[2H]C1([2H])Oc2cc(ccn2)Nc2cc(n[nH]2)[C@H]2CC[C@H](C2)OC(=O)N[C@H]2C[C@H]1C2 test_value="7.30 to 8.00"
test_smiles=O=C1N[C@H]2C[C@H](COc3cc(ccn3)Nc3cc(n[nH]3)[C@H]3CC[C@H](C3)O1)C2 test_value="7.30 to 8.00"
test_smiles=[2H]C1([2H])Oc2cc(ccn2)Nc2[nH]nc(c2F)[C@H]2CC[C@H](C2)OC(=O)N[C@H]2C[C@H]1C2 test_value="6.30 to 7.00"
test_smiles=C[C@H]1CCCOc2cc(ccn2)Nc2cc(n[nH]2)[C@@H]2C[C@H](F)[C@@H](C2)OC(=O)N1 test_value="7.30 to 8.00"
test_smiles=C[C@H]1CCCOc2cc(ccn2)Nc2cc(n[nH]2)[C@H]2C[C@@H](F)[C@H](C2)OC(=O)N1 test_value="6.30 to 7.00"
test_smiles=C[C@H]1CC(F)(F)COc2cc(ccn2)Nc2cc(n[nH]2)[C@H]2CC[C@H](C2)OC(=O)N1 test_value="6.30 to 7.00"
